assayedSystem: JAK1 (Homo sapiens (Human), UniProt P23458)
Sequence (P23458 875-1153): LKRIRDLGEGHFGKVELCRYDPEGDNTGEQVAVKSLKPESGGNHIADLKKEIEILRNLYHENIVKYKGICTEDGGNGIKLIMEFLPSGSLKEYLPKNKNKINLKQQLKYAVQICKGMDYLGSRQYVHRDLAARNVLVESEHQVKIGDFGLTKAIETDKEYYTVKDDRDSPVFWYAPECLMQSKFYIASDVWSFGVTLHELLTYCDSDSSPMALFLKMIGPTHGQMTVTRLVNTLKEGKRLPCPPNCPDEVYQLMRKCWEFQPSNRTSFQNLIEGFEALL
method: Jak biochemical HTRF assay, JAK1
conditionLabel: recombinant purified GST-tagged catalytic domain; HTRF format; [ATP] 31.8 μM
propertyName: IC50 (nM)

As a guide, the following entries are already answered.
Task: Return IC50 for the following compound: Cn1ccc(CN2CC[C@@H](C#N)[C@H](n3cc(C(N)=O)c(Nc4ccc(F)cc4)n3)C2)n1 (racemic)
Output: 2

Task: Note IC50 for the compound shown: CC(C)(C)COC(=O)N1CC[C@@H](C#N)C(n2cc(C(N)=O)c(Nc3ccc(F)cc3)n2)C1 (mixture of isomers)
Output: 6

Task: Supply IC50 value. Item: N#C[C@@H]1CN(C(=O)OCCCc2ccccc2)CC[C@H]1n1cc(C(N)=O)c(Nc2ccc(F)cc2)n1 (racemic)
Output: 44

Task: Note down IC50 recorded for N#C[C@@H]1CN(C(=O)OC2CCOC2)CC[C@H]1n1cc(C(N)=O)c(Nc2ccc(F)cc2)n1 (mixture of isomers)
Output: 12

Task: Assign IC50 to the following record: N#C[C@@H]1CCN(Cc2cncs2)C[C@H]1n1cc(C(N)=O)c(Nc2ccc(F)cc2)n1 (racemic)
Output: 0.5

[a] N#C[C@@H]1CCOC[C@H]1n1cc(C(N)=O)c(Nc2ccc(C(F)(F)F)nc2)n1 (single isomer, unassigned)
[b] N#C[C@@H]1CN(C(=O)OC2Cc3ccccc3C2)CC[C@@H]1n1cc(C(N)=O)c(Nc2ccc(F)cc2)n1 (racemic)
[c] N#C[C@@H]1CN(C(=O)OCC(F)F)CC[C@@H]1n1cc(C(N)=O)c(Nc2ccc(F)cc2)n1 (racemic)
Task: Put the items in order so that reported IC50 rises from first to last. Give your ranking as a list of the labels in the requested order.
Output: a, c, b

[I] CCOC(=O)N1CC[C@@H](n2cc(C(N)=O)c(Nc3ccc(F)cc3)n2)[C@H](C#N)C1 (racemic)
[II] N#C[C@@H]1CCOC[C@H]1n1cc(C(N)=O)c(Nc2cnc3cc(Cl)ccc3c2)n1 (single isomer, unassigned)
Task: Could you kindly indicate whether I or II has the higher IC50 value? Please indicate the selected item by its label.
Output: II

Hey, just so you know, these numbers are from patent US9394282B2.
